Conditions: pH 2.7
Marks after values point to notes of the source that are not given here.
measurementLabel: Log P

INSERT INTO results (molecule, resultvalue) VALUES
  ('CCC(NC(=C(C#N)C(=O)OC)c1cccnc1Cl)c1ccccc1OC (centres unmarked)', '3.15^[a]'),
  ('CC(C)C(C)NC(=C(C#N)C(=O)N1CCOCC1)c1cn(C)nc1C(F)F (centres unmarked)', '2.43^[a]'),
  ('CCOC(=O)C(C#N)=C(NC(C)C(C)C)c1ccnc(Cl)c1Br (centres unmarked)', '3.92^[a]'),
  ('CCOC(=O)C(C#N)=C(NC(C)C1CC1)c1ccncc1C(F)(F)F (racemic)', '3.2^[a]'),
  ('CC(NC(=C(C#N)C(=O)N(C)C)c1cn(C)nc1C(F)F)c1ccccn1 (centres unmarked)', '1.59^[a]');

----------
Parameter: Log P. Scope: all listed entries.
Conditions: pH 2.7
Marks after values point to notes of the source that are not given here.
measurementLabel: Log P

INSERT INTO results (compound, measurementlabel, resultvalue) VALUES
  ('CCOC(=O)C(C#N)=C(NC(C)C(C)OC)c1cn(C)nc1C(Cl)Cl (centres unmarked)', 'Log P', '2.98^[a]'),
  ('COC(=O)C(C#N)=C(NC(C)c1ncc(C)s1)c1sc(C)nc1C(F)(F)F (racemic)', 'Log P', '3.09^[a]'),
  ('CCCCCNC(=C(C#N)C(=O)OCC)c1cccnc1Cl', 'Log P', '3.53^[a]'),
  ('CCOC(=O)C(C#N)=C(NC1CC1)c1cn(C)nc1C(F)F', 'Log P', '2.35^[a]'),
  ('CCOC(=O)C(C#N)=C(NC(C)c1ccccn1)c1sc(C)nc1C(F)(F)F (racemic)', 'Log P', '3.12^[a]'),
  ('CCOC(=O)C(C#N)=C(NC(COC)COC)c1cccnc1Cl', 'Log P', '2.56^[a]'),
  ('COC(=O)C(C#N)=C(NC(C)c1nc(C)cs1)c1sc(C)nc1C(F)(F)F (racemic)', 'Log P', '3.04^[a]'),
  ('CCOC(=O)C(C#N)=C(NCc1ccccn1)c1c(C(F)F)nn(C)c1Cl', 'Log P', '2.37^[a]'),
  ('CCOC(=O)C(C#N)=C(NC(C)c1ccc(Cl)cc1)c1ccncc1F (racemic)', 'Log P', '3.48^[a]'),
  ('CCOC(=O)C(C#N)=C(NC(C)C1CC1)c1ccncc1Br (racemic)', 'Log P', '3^[a]'),
  ('CCOC(=O)/C(C#N)=C(\NC(C)c1nccs1)c1sccc1Cl (centres unmarked)', 'Log P', '3.09^[a]'),
  ('COC(=O)C(C#N)=C(NCc1nccs1)c1sc(C)nc1C(F)(F)F', 'Log P', '2.33^[a]'),
  ('COC(=O)C(C#N)=C(NC(C)(C)c1c(F)cccc1F)c1cccnc1Cl', 'Log P', '2.98^[a]'),
  ('CCOC(=O)C(C#N)=C(NC(C)c1nc(C)c(C)s1)c1c(C)nn(C)c1F (racemic)', 'Log P', '2.94^[a]'),
  ('CC(C)C(C)NC(=C(C#N)C(=O)N1CCCCC1)c1cccnc1Cl (centres unmarked)', 'Log P', '3.48^[a]'),
  ('CCOC(=O)C(C#N)=C(NC(C)c1nccs1)c1cn(C)nc1C (centres unmarked)', 'Log P', '2.11^[a]'),
  ('CCOC(=O)C(C#N)=C(Nc1ccccc1SC)c1cc(Cl)sc1Cl', 'Log P', '4.59^[a]'),
  ('CCOC(=O)C(C#N)=C(NC(C)C(N)=O)c1nc(SC)ncc1Br (centres unmarked)', 'Log P', '2.13^[a]'),
  ('CCOC(=O)C(C#N)=C(NC(C)C(C)(C)C)c1cccnc1Cl (centres unmarked)', 'Log P', '3.6^[a]'),
  ('CCOC(=O)C(C#N)=C(NC(C)c1nccs1)c1c(C)nn(C)c1F (racemic)', 'Log P', '2.37^[a]'),
  ('CC(C)C(C)NC(=C(C#N)C(=O)N(C)C1CC1)c1cccnc1Cl (centres unmarked)', 'Log P', '3.02^[a]'),
  ('CCOC(=O)C(C#N)=C(NC(C)C(C)C)c1cnc(Cl)cc1Cl (centres unmarked)', 'Log P', '3.96^[a]'),
  ('CCOC(=O)C(C#N)=C(NC(C)COC)c1sc(C)nc1C(F)(F)F (racemic)', 'Log P', '3.11^[a]'),
  ('C=CCOC(=O)C(C#N)=C(NC(C)C(C)C)c1cn(C)nc1C(F)F (centres unmarked)', 'Log P', '3.31^[a]'),
  ('CCOC(=O)C(C#N)=C(NCC(C)N)c1sccc1C(F)(F)F (centres unmarked)', 'Log P', '1.42^[a]'),
  ('CCOC(=O)C(C#N)=C(Nc1ccc(OC(F)F)cc1)c1sccc1C(F)(F)F', 'Log P', '3.78^[a]'),
  ('CCOC(=O)C(C#N)=C(NC(C)c1ncccc1SC)c1cccnc1Cl (centres unmarked)', 'Log P', '3.1^[a]'),
  ('CC(NC(=C(C#N)C(=O)O)c1cccnc1Cl)c1nccs1 (centres unmarked)', 'Log P', '1.01^[a]'),
  ('C=CCCCC(C=C)NC(=C(C#N)C(=O)OCC)c1conc1C (centres unmarked)', 'Log P', '3.81^[a]'),
  ('CCOC(=O)C(C#N)=C(NC1CC2CCC1C2)c1cn(C)nc1C(F)F (centres unmarked)', 'Log P', '3.46^[a]'),
  ('COC(=O)C(C#N)=C(NCc1nc(C)cs1)c1sc(C)nc1C(F)(F)F', 'Log P', '2.58^[a]'),
  ('COC(=O)C(C#N)=C(NC1CCS(=O)(=O)C1)c1cccnc1Cl (centres unmarked)', 'Log P', '1.33^[a]'),
  ('CCOC(=O)C(C#N)=C(NC(C)COc1c(C)cccc1C)c1sccc1Br (racemic)', 'Log P', '4.86^[a]'),
  ('CCOC(=O)C(C#N)=C(NC(C)C(N)=O)c1sccc1Br (centres unmarked) [Compound 611]', 'Log P', '1.9^[a]'),
  ('CCOC(=O)C(C#N)=C(NCc1ccccn1)c1c(C)nn(C)c1F', 'Log P', '1.91^[a]');
